Reference source: patent US8957093B2

# Target desc: GST-PPARG-LBD (Homo sapiens (Human), UniProt P37231)
# Sequence (P37231 238-503): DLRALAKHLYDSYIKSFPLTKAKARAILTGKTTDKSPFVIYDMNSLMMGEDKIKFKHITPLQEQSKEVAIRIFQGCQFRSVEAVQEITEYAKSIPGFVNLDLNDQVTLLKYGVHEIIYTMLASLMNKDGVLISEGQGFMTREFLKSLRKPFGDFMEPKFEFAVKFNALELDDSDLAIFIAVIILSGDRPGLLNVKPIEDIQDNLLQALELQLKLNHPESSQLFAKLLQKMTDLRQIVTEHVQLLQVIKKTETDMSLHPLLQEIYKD
# Assay remarks: Lanthascreen PPARG competitive binding assay (Invitrogen, TR-FRET)
# Condition description: Lanthascreen competitive binding; NA = not active; inc = incomplete curve
Measured metric: IC50 (nM) Lantha

Cc1c(C)n(Cc2ccc(-c3ccccc3C#N)cc2)c2ccc(C(=O)N[C@@H](C)c3ccc(C(C)C)cc3)cc12 = inc
Cc1c(C)n(Cc2ccc(-c3ccccc3C#N)cc2)c2ccc(C(=O)N[C@@H](C)c3cccc(C(C)(C)C)c3)cc12 = inc
Cc1c(C)n(Cc2ccc(-c3ccccc3C#N)cc2)c2ccc(C(=O)N[C@@H](C)c3cccc(C(C)C)c3)cc12 = inc

----------
# Target desc: PPARG (murine PPARg2 or full-length human PPARG, 3xPPRE-luciferase reporter) (Homo sapiens, UniProt P37231)
# Sequence (P37231 whole entry, looked up): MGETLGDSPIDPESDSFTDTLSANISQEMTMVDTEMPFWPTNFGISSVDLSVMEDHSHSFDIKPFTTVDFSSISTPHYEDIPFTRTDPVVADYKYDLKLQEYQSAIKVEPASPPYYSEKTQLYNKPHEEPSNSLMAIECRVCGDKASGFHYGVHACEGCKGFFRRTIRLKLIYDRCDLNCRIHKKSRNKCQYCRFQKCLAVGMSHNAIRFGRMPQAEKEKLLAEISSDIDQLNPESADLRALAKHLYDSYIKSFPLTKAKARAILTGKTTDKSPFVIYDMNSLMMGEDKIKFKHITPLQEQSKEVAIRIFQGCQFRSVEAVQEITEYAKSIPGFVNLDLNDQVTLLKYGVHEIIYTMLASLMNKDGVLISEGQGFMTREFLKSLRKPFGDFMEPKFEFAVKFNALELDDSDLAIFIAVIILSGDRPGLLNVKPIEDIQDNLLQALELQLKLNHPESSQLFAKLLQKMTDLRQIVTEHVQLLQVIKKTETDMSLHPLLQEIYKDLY
# Assay remarks: Cell-based PPRE-luciferase transactivation assay in COS-1 cells
# Condition description: PPRE transactivation data; read-out: PPRE EC50
# Excerpt: Cell-Based Transactivation Assay: PPRE is a DNA that contains a binding site for PPARG; thus PPRE is a PPAR response element, used herein as a promoter reporter. The binding site is a DR1 response element with the sequence AGGTCA repeated 3 times in tandem and then fused to a construct for luciferase. Thus, PPRE is the basis of the cell based transactivation assay described below. The plasmid DNA is co-transfected along with a plasmid for PPARG into COS-1 cells. […]
Measured metric: EC50 (nM)
Reply numerically in nM, unit not repeated.

Req: Which EC50 value belongs to Cc1c(C)n(Cc2ccc(-c3ccccc3C(=O)O)cc2)c2ccc(C(=O)N[C@@H]3C[C@H]3c3ccccc3)cc12 [Example 294] ?
Resp: 517

----------
# Target desc: Gal-4-PPAR (human PPAR LBD fused to GAL4 DNA-binding domain) (Homo sapiens (Human))
# Assay remarks: GAL4-PPARG LBD / UAS-luciferase transactivation assay in HEK 293T cells
# Type: cell-based
Measured metric: pEC50
Formally, pEC50 is defined as -log10 of the concentration c, with c in mol/L.

Examples from the recorded data:
Cc1c(C)n(Cc2ccc(-c3ccccc3C(N)=O)cc2)c2ccc(C(=O)N[C@@H](C)c3cccc(C(C)C)c3)cc12 [Example 315] = 6.86
Cc1c(C)n(Cc2ccc(-c3ccccc3C(=O)NO)cc2)c2ccc(C(=O)N[C@@H](C)c3cccc(C(C)C)c3)cc12 [Example 313] = 6.62
Cc1c(C)n(Cc2ccc(-c3ccccc3-c3nn[nH]n3)cc2)c2ccc(C(=O)N[C@@H](C)c3cccc(C(C)C)c3)cc12 [Example 243] = 5.80
Cc1c(C)n(Cc2ccc(-c3ccccc3-c3n[nH]c(=O)o3)cc2)c2ccc(C(=O)N[C@@H](C)c3cccc(C(C)C)c3)cc12 [Example 245] = 6.34

Next compound, pEC50 to be filled in.
Req: For the compound shown here, Cc1c(C)n(Cc2ccc(-c3ccccc3-c3noc(=O)[nH]3)cc2)c2ccc(C(=O)N[C@@H](C)c3cccc(C(C)C)c3)cc12 [Example 244] , give the reported pEC50.
Resp: 6.04

----------
# Target desc: Gal-4-PPAR (human PPAR LBD fused to GAL4 DNA-binding domain) (Homo sapiens (Human), UniProt P37231)
# Sequence (P37231 238-503): as the sequence (P37231 238-503) above
# Assay remarks: GAL4-PPARG LBD / UAS-luciferase transactivation assay in HEK 293T cells
# Assay type: cell-based
# Condition description: HEK-293T, 18 h; read-out: % transactivation at 10 μM (GAL4)
Here, each record is paired with measured activation at 10 µM data.
I only need the number, in %, no unit after it.

Observe how each entry below is paired with its result.
Cc1c(C)n(Cc2ccc(-c3ccccc3C(=O)O)cc2)c2ccc(C(=O)N[C@H](C)c3ccccc3C(F)(F)F)cc12 [Example 207] = 20
Cc1c(C)n(Cc2ccc(-c3ccccc3C(=O)O)cc2)c2ccc(C(=O)N[C@@H](C)C3CCN(C(=O)OCc4ccccc4)CC3)cc12 [Example 202] = 40
COc1cc(C(F)(F)F)ccc1[C@H](C)NC(=O)c1ccc2c(c1)c(C)c(C)n2Cc1ccc(-c2ccccc2C(=O)O)cc1 [Example 223] = 10
Cc1c(C)n(Cc2ccc(-c3ccccc3C(=O)O)cc2)c2ccc(C(=O)N[C@@H](C)c3ccc(C(F)(F)F)nc3)cc12 [Example 217] = 15
Cc1c(C)n(Cc2ccc(-c3ccccc3C(=O)O)cc2)c2ccc(C(=O)N[C@@H](C)c3ccc4c(c3)CCO4)cc12 [Example 218] = 45

Here's the next entry for you.
Req: What does the data say about its activation at 10 µM? Entry: Cc1c(C)n(Cc2ccc(-c3ccccc3C(=O)O)cc2)c2ccc(C(=O)N[C@@H](C)c3ccc(F)c(F)c3)cc12 [Example 233]
Resp: 40
